Tested on: E. faecium CL 4931 (VanA)
Assay: microbe, parasite or virus in culture
Format: cell-based
Parameters: unit not given here
Conditions: Tables 7 and 8; unit not given

{"compound": "CNC(CC(C)C)C(=O)NC1C(=O)NC(CC(N)=O)C(=O)NC2C(=O)NC3C(=O)NC(C(=O)NC(C(=O)O)c4cc(O)cc(O)c4-c4cc3ccc4O)C(O)c3ccc(c(Cl)c3)Oc3cc2cc(c3OC2OC(CNCc3cccc(Cl)c3)C(O)C(O)C2OC2CC(C)(NCc3ccc(OCc4ccc(Cl)c(Cl)c4)cc3)C(O)C(C)O2)Oc2ccc(cc2Cl)C1O (stereo not drawn) [Compound 137]", "assay_target": "E. faecium CL 4931 (VanA)", "CL4931 (in vitro testing)": 4}
{"compound": "CNC(CC(C)C)C(=O)NC1C(=O)NC(CC(N)=O)C(=O)NC2C(=O)NC3C(=O)NC(C(=O)NC(C(=O)O)c4cc(O)cc(O)c4-c4cc3ccc4O)C(O)c3ccc(c(Cl)c3)Oc3cc2cc(c3OC2OC(CN)C(O)C(O)C2OC2CC(C)(NCc3ccc(OCc4ccc(Cl)cc4)cc3)C(O)C(C)O2)Oc2ccc(cc2Cl)C1O (stereo not drawn) [Compound 171]", "assay_target": "E. faecium CL 4931 (VanA)", "CL4931 (in vitro testing)": 4}
{"compound": "CNC(CC(C)C)C(=O)NC1C(=O)NC(CC(N)=O)C(=O)NC2C(=O)NC3C(=O)NC(C(=O)NC(C(=O)O)c4cc(O)cc(O)c4-c4cc3ccc4O)C(O)c3ccc(c(Cl)c3)Oc3cc2cc(c3OC2OC(CNCc3ccc(N)cc3)C(O)C(O)C2OC2CC(C)(NCc3ccc(OCc4ccc(Cl)c(Cl)c4)cc3)C(O)C(C)O2)Oc2ccc(cc2Cl)C1O (stereo not drawn) [Compound 133]", "assay_target": "E. faecium CL 4931 (VanA)", "CL4931 (in vitro testing)": 2}
{"compound": "CNC(CC(C)C)C(=O)NC1C(=O)NC(CC(N)=O)C(=O)NC2C(=O)NC3C(=O)NC(C(=O)NC(C(=O)O)c4cc(O)cc(O)c4-c4cc3ccc4O)C(O)c3ccc(c(Cl)c3)Oc3cc2cc(c3OC2OC(CNC3CCCC3)C(O)C(O)C2OC2CC(C)(NCc3ccc(OCc4ccc(Cl)c(Cl)c4)cc3)C(O)C(C)O2)Oc2ccc(cc2Cl)C1O (stereo not drawn) [Compound 144]", "assay_target": "E. faecium CL 4931 (VanA)", "CL4931 (in vitro testing)": 4}
{"compound": "CNC(CC(C)C)C(=O)NC1C(=O)NC(CC(N)=O)C(=O)NC2C(=O)NC3C(=O)NC(C(=O)NC(C(=O)O)c4cc(O)cc(O)c4-c4cc3ccc4O)C(O)c3ccc(c(Cl)c3)Oc3cc2cc(c3OC2OC(CNCCc3ccccc3)C(O)C(O)C2OC2CC(C)(NCc3ccc(OCc4ccc(Cl)c(Cl)c4)cc3)C(O)C(C)O2)Oc2ccc(cc2Cl)C1O (stereo not drawn) [Compound 143]", "assay_target": "E. faecium CL 4931 (VanA)", "CL4931 (in vitro testing)": 8}
{"compound": "CNC(CC(C)C)C(=O)NC1C(=O)NC(CC(N)=O)C(=O)NC2C(=O)NC3C(=O)NC(C(=O)NC(C(=O)O)c4cc(O)cc(O)c4-c4cc3ccc4O)C(O)c3ccc(c(Cl)c3)Oc3cc2cc(c3OC2OC(CN)C(O)C(O)C2OC2CC(C)(NCc3ccc(OCc4ccccc4C(F)(F)F)cc3)C(O)C(C)O2)Oc2ccc(cc2Cl)C1O (stereo not drawn) [Compound 180]", "assay_target": "E. faecium CL 4931 (VanA)", "CL4931 (in vitro testing)": 16}
{"compound": "CNC(CC(C)C)C(=O)NC1C(=O)NC(CC(N)=O)C(=O)NC2C(=O)NC3C(=O)NC(C(=O)NC(C(=O)O)c4cc(O)cc(O)c4-c4cc3ccc4O)C(O)c3ccc(c(Cl)c3)Oc3cc2cc(c3OC2OC(CN)C(O)C(O)C2OC2CC(C)(NCc3ccc(OCc4ccc(Cl)c(Cl)c4)c(OC)c3)C(O)C(C)O2)Oc2ccc(cc2Cl)C1O (stereo not drawn) [Compound 184]", "assay_target": "E. faecium CL 4931 (VanA)", "CL4931 (in vitro testing)": 4}
{"compound": "C=CCNCC1OC(Oc2c3cc4cc2Oc2ccc(cc2Cl)C(O)C2NC(=O)C(NC(=O)C4NC(=O)C(CC(N)=O)NC(=O)C(NC(=O)C(CC(C)C)NC)C(O)c4ccc(c(Cl)c4)O3)c3ccc(O)c(c3)-c3c(O)cc(O)cc3C(C(=O)O)NC2=O)C(OC2CC(C)(NCc3ccc(OCc4ccc(Cl)c(Cl)c4)cc3)C(O)C(C)O2)C(O)C1O (stereo not drawn) [Compound 150]", "assay_target": "E. faecium CL 4931 (VanA)", "CL4931 (in vitro testing)": 8}
{"compound": "CNC(CC(C)C)C(=O)NC1C(=O)NC(CC(N)=O)C(=O)NC2C(=O)NC3C(=O)NC(C(=O)NC(C(=O)O)c4cc(O)cc(O)c4-c4cc3ccc4O)C(O)c3ccc(c(Cl)c3)Oc3cc2cc(c3OC2OC(CNCc3ccc(F)cc3)C(O)C(O)C2OC2CC(C)(NCc3ccc(OCc4ccc(Cl)c(Cl)c4)cc3)C(O)C(C)O2)Oc2ccc(cc2Cl)C1O (stereo not drawn) [Compound 136]", "assay_target": "E. faecium CL 4931 (VanA)", "CL4931 (in vitro testing)": 4}
{"compound": "CNC(CC(C)C)C(=O)NC1C(=O)NC(CC(N)=O)C(=O)NC2C(=O)NC3C(=O)NC(C(=O)NC(C(=O)O)c4cc(O)cc(O)c4-c4cc3ccc4O)C(O)c3ccc(c(Cl)c3)Oc3cc2cc(c3OC2OC(CN3CCNCC3)C(O)C(O)C2OC2CC(C)(NCc3ccc(OCc4ccc(Cl)c(Cl)c4)cc3)C(O)C(C)O2)Oc2ccc(cc2Cl)C1O (stereo not drawn) [Compound 167]", "assay_target": "E. faecium CL 4931 (VanA)", "CL4931 (in vitro testing)": 8}
{"compound": "CNC(CC(C)C)C(=O)NC1C(=O)NC(CC(N)=O)C(=O)NC2C(=O)NC3C(=O)NC(C(=O)NC(C(=O)O)c4cc(O)cc(O)c4-c4cc3ccc4O)C(O)c3ccc(c(Cl)c3)Oc3cc2cc(c3OC2OC(CNCc3ccccc3)C(O)C(O)C2OC2CC(C)(NCc3ccc(OCc4ccc(Cl)c(Cl)c4)cc3)C(O)C(C)O2)Oc2ccc(cc2Cl)C1O (stereo not drawn) [Compound 134]", "assay_target": "E. faecium CL 4931 (VanA)", "CL4931 (in vitro testing)": 2}
{"compound": "CNC(CC(C)C)C(=O)NC1C(=O)NC(CC(N)=O)C(=O)NC2C(=O)NC3C(=O)NC(C(=O)NC(C(=O)O)c4cc(O)cc(O)c4-c4cc3ccc4O)C(O)c3ccc(c(Cl)c3)Oc3cc2cc(c3OC2OC(CNCc3ccc(C)cc3)C(O)C(O)C2OC2CC(C)(NCc3ccc(OCc4ccc(Cl)c(Cl)c4)cc3)C(O)C(C)O2)Oc2ccc(cc2Cl)C1O (stereo not drawn) [Compound 141]", "assay_target": "E. faecium CL 4931 (VanA)", "CL4931 (in vitro testing)": 4}
